# ASSAY_PROCEDURE: p53 small molecule agonists, cell-based qHTS assay with human liver microsomes: qHTS cell viability counter screen (AID 1963579); note: nearly all actives have a fitted effect of over 45% in size
# CONDITION_DESCRIPTION: p53RE-bla HCT-116 viability, ATP luminescence, 16 h, HLM; series mostly up to 66 µM
Results filed as inconclusive are left out. Calls of active or inactive are those of the source. Calls come from the whole dose curve.
ATTRIBUTE_MEASURED: outcome

Please review the following examples before continuing.
CCCC[N+]1(C)CCCC1 (tested in a mixture with another compound) ... inactive
CCN(CC)C(=O)/C(Cl)=C(\C)OP(=O)(OC)OC ... inactive
C#CCOC(=O)/C=C(C)/C=C/CC(C)CCCC(C)C (configuration not stated) ... inactive
O=S(=O)(O)O ... inactive
Clc1cccc(C(Cl)(Cl)Cl)n1 ... inactive
CCn1cc[n+](C)c1C ... inactive

We now examine a further compound.
I'd like to know its outcome. The compound in question is `CCCOC(=O)c1ccccc1C(=O)OCCC`
inactive
